Values from ChEMBL document CHEMBL1132987

- assay.method.text: Area under curve was determined after intravenous administration of compound as Bis(N-methyl-D-glucamine) salt in rat at a dose 1 mg/kg
- Type: ADME, organism-based
- Set-up: dose 1 mg/kg, route intravenous
- experimental.conditions: in vivo
endpoint.name: AUC (ng·h/mL)
One number for each entry, in ng·h/mL.

Input line: What value of measured AUC is listed for C[C@@H](O[C@H]1OCCN(Cc2n[nH]c(=O)[nH]2)[C@H]1c1ccc(F)cc1)c1cc(C(F)(F)F)cc(C(F)(F)F)c1 [APREPITANT] ?
Output line: 570

---

- assay.method.text: Area under curve was determined after intravenous administration of compound as Bis(N-methyl-D-glucamine) salt in rat at a dose 8 mg/kg
- Assay type: ADME, organism-based
- Parameters: dose 8 mg/kg, route intravenous
- experimental.conditions: in vivo
endpoint.name: AUC (µg·h/mL)
Answers are plain numbers, in µg·h/mL.

Input line: What value of measured AUC is listed for C[C@@H](O[C@H]1OCCN(Cc2n[nH]c(=O)[nH]2)[C@H]1c1ccc(F)cc1)c1cc(C(F)(F)F)cc(C(F)(F)F)c1 [APREPITANT] ?
Output line: 6.3
